- Tested on: Burkholderia pseudomallei
- ASSAY NOTES: Antimicrobial activity against Burkholderia pseudomallei KHW in presence of 250 uM chlorpromazine
- Format: functional

SMILES | UNIT TEXT | MIC
CO[C@H]1C[C@H](O[C@H]2[C@H](C)[C@@H](O[C@@H]3O[C@H](C)C[C@H](N(C)C)[C@H]3O)[C@@H](C)C[C@@]3(CO3)C(=O)[C@H](C)[C@@H](O)[C@@H](C)[C@@H](C)OC(=O)[C@@H]2C)O[C@@H](C)[C@@H]1O | µg/mL | 256
CN[C@@H]1[C@H](O[C@H]2[C@H](O[C@H]3[C@H](O)[C@@H](O)[C@H](N=C(N)N)[C@@H](O)[C@@H]3N=C(N)N)O[C@@H](C)[C@]2(O)C=O)O[C@@H](CO)[C@H](O)[C@H]1O | µg/mL | 1020
CC[C@H]1OC(=O)[C@H](C)[C@@H](O[C@H]2C[C@@](C)(OC)[C@@H](O)[C@H](C)O2)[C@H](C)[C@@H](O[C@@H]2O[C@H](C)C[C@H](N(C)C)[C@H]2O)[C@](C)(O)C[C@@H](C)CN(C)[C@H](C)[C@@H](O)[C@]1(C)O | µg/mL | 16
CN[C@@H]1[C@H](O)[C@H](NC)[C@H]2O[C@@]3(O)C(=O)C[C@@H](C)O[C@H]3O[C@@H]2[C@H]1O | µg/mL | 128

---

- System: Burkholderia pseudomallei
- ASSAY NOTES: Antimicrobial activity against Burkholderia pseudomallei KHW in presence of 125 uM chlorpromazine
- Assay type: functional
compounds and their reported MIC

COMPOUND | MIC
CN[C@@H]1[C@H](O[C@H]2[C@H](O[C@H]3[C@H](O)[C@@H](O)[C@H](N=C(N)N)[C@@H](O)[C@@H]3N=C(N)N)O[C@@H](C)[C@]2(O)C=O)O[C@@H](CO)[C@H](O)[C@H]1O [STREPTOMYCIN] | 1020 µg/mL
CC[C@H]1OC(=O)[C@H](C)[C@@H](O[C@H]2C[C@@](C)(OC)[C@@H](O)[C@H](C)O2)[C@H](C)[C@@H](O[C@@H]2O[C@H](C)C[C@H](N(C)C)[C@H]2O)[C@](C)(O)C[C@@H](C)C(=O)[C@H](C)[C@@H](O)[C@]1(C)O [ERYTHROMYCIN] | 128 µg/mL
C[C@H]1COc2c(N3CCN(C)CC3)c(F)cc3c(=O)c(C(=O)O)cn1c23.C[C@H]1COc2c(N3CCN(C)CC3)c(F)cc3c(=O)c(C(=O)O)cn1c23.O [LEVOFLOXACIN] | 2 µg/mL
CC[C@H]1OC(=O)[C@H](C)[C@@H](O[C@H]2C[C@@](C)(OC)[C@@H](O)[C@H](C)O2)[C@H](C)[C@@H](O[C@@H]2O[C@H](C)C[C@H](N(C)C)[C@H]2O)[C@](C)(O)C[C@@H](C)CN(C)[C@H](C)[C@@H](O)[C@]1(C)O [AZITHROMYCIN] | 16 µg/mL
CO[C@H]1C[C@H](O[C@H]2[C@H](C)[C@@H](O[C@@H]3O[C@H](C)C[C@H](N(C)C)[C@H]3O)[C@@H](C)C[C@@]3(CO3)C(=O)[C@H](C)[C@@H](O)[C@@H](C)[C@@H](C)OC(=O)[C@@H]2C)O[C@@H](C)[C@@H]1O [OLEANDOMYCIN] | 512 µg/mL
CN[C@@H]1[C@H](O)[C@H](NC)[C@H]2O[C@@]3(O)C(=O)C[C@@H](C)O[C@H]3O[C@@H]2[C@H]1O [SPECTINOMYCIN] | 256 µg/mL

---

- Tested on: Burkholderia pseudomallei
- ASSAY NOTES: Antimicrobial activity against Burkholderia pseudomallei KHW in presence of 125 uM promazine
- Format: functional
Rule: measured MIC below 300 µg/mL gets T; anything equal to or greater than 300 µg/mL gets F.

COMPOUND | CATEGORY LABEL
CN[C@@H]1[C@H](O)[C@H](NC)[C@H]2O[C@@]3(O)C(=O)C[C@@H](C)O[C@H]3O[C@@H]2[C@H]1O [SPECTINOMYCIN] | T
CO[C@H]1C[C@H](O[C@H]2[C@H](C)[C@@H](O[C@@H]3O[C@H](C)C[C@H](N(C)C)[C@H]3O)[C@@H](C)C[C@@]3(CO3)C(=O)[C@H](C)[C@@H](O)[C@@H](C)[C@@H](C)OC(=O)[C@@H]2C)O[C@@H](C)[C@@H]1O [OLEANDOMYCIN] | F
C[C@H]1COc2c(N3CCN(C)CC3)c(F)cc3c(=O)c(C(=O)O)cn1c23.C[C@H]1COc2c(N3CCN(C)CC3)c(F)cc3c(=O)c(C(=O)O)cn1c23.O [LEVOFLOXACIN] | T
CN[C@@H]1[C@H](O[C@H]2[C@H](O[C@H]3[C@H](O)[C@@H](O)[C@H](N=C(N)N)[C@@H](O)[C@@H]3N=C(N)N)O[C@@H](C)[C@]2(O)C=O)O[C@@H](CO)[C@H](O)[C@H]1O [STREPTOMYCIN] | F
CC[C@H]1OC(=O)[C@H](C)[C@@H](O[C@H]2C[C@@](C)(OC)[C@@H](O)[C@H](C)O2)[C@H](C)[C@@H](O[C@@H]2O[C@H](C)C[C@H](N(C)C)[C@H]2O)[C@](C)(O)C[C@@H](C)CN(C)[C@H](C)[C@@H](O)[C@]1(C)O [AZITHROMYCIN] | T
CC[C@H]1OC(=O)[C@H](C)[C@@H](O[C@H]2C[C@@](C)(OC)[C@@H](O)[C@H](C)O2)[C@H](C)[C@@H](O[C@@H]2O[C@H](C)C[C@H](N(C)C)[C@H]2O)[C@](C)(O)C[C@@H](C)C(=O)[C@H](C)[C@@H](O)[C@]1(C)O [ERYTHROMYCIN] | T

---

- Test system: Burkholderia pseudomallei
- ASSAY NOTES: Antimicrobial activity against Burkholderia pseudomallei KHW in presence of 1000 uM chlorpromazine
- Assay type: functional
QUANTITY: MIC

SMILES | QUANTITY | RECORDED VALUE
CN[C@@H]1[C@H](O)[C@H](NC)[C@H]2O[C@@]3(O)C(=O)C[C@@H](C)O[C@H]3O[C@@H]2[C@H]1O | MIC | < 0.25 µg/mL
CC[C@H]1OC(=O)[C@H](C)[C@@H](O[C@H]2C[C@@](C)(OC)[C@@H](O)[C@H](C)O2)[C@H](C)[C@@H](O[C@@H]2O[C@H](C)C[C@H](N(C)C)[C@H]2O)[C@](C)(O)C[C@@H](C)CN(C)[C@H](C)[C@@H](O)[C@]1(C)O | MIC | < 0.25 µg/mL
CC[C@H]1OC(=O)[C@H](C)[C@@H](O[C@H]2C[C@@](C)(OC)[C@@H](O)[C@H](C)O2)[C@H](C)[C@@H](O[C@@H]2O[C@H](C)C[C@H](N(C)C)[C@H]2O)[C@](C)(O)C[C@@H](C)C(=O)[C@H](C)[C@@H](O)[C@]1(C)O | MIC | < 0.25 µg/mL
CN[C@@H]1[C@H](O[C@H]2[C@H](O[C@H]3[C@H](O)[C@@H](O)[C@H](N=C(N)N)[C@@H](O)[C@@H]3N=C(N)N)O[C@@H](C)[C@]2(O)C=O)O[C@@H](CO)[C@H](O)[C@H]1O | MIC | < 0.25 µg/mL
CO[C@H]1C[C@H](O[C@H]2[C@H](C)[C@@H](O[C@@H]3O[C@H](C)C[C@H](N(C)C)[C@H]3O)[C@@H](C)C[C@@]3(CO3)C(=O)[C@H](C)[C@@H](O)[C@@H](C)[C@@H](C)OC(=O)[C@@H]2C)O[C@@H](C)[C@@H]1O | MIC | < 0.25 µg/mL
C[C@H]1COc2c(N3CCN(C)CC3)c(F)cc3c(=O)c(C(=O)O)cn1c23.C[C@H]1COc2c(N3CCN(C)CC3)c(F)cc3c(=O)c(C(=O)O)cn1c23.O | MIC | < 0.25 µg/mL
